Exercise: state measured HEK-blue EC50 (pM) - IL-18BP for each of the binders provided.
Biological target: T1, IL-18 receptors on HEK-Blue IL-18 reporter cells (UniProt Q13478 19-541; O95256 20-599, limits assumed)
T1 sequence (looked up) 1: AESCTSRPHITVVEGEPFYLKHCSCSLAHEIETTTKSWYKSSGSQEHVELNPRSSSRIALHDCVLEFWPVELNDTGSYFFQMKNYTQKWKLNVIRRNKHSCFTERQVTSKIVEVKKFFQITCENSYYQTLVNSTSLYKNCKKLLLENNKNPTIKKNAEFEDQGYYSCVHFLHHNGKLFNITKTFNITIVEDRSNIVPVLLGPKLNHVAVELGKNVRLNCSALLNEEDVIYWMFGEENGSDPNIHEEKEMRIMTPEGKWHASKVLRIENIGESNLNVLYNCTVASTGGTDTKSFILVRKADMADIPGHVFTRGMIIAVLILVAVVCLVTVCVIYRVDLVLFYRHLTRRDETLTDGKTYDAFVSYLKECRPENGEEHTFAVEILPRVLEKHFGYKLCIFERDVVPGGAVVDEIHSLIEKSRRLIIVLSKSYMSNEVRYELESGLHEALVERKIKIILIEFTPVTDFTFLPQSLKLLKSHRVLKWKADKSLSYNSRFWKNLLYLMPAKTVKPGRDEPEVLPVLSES
T1 sequence (looked up) 2: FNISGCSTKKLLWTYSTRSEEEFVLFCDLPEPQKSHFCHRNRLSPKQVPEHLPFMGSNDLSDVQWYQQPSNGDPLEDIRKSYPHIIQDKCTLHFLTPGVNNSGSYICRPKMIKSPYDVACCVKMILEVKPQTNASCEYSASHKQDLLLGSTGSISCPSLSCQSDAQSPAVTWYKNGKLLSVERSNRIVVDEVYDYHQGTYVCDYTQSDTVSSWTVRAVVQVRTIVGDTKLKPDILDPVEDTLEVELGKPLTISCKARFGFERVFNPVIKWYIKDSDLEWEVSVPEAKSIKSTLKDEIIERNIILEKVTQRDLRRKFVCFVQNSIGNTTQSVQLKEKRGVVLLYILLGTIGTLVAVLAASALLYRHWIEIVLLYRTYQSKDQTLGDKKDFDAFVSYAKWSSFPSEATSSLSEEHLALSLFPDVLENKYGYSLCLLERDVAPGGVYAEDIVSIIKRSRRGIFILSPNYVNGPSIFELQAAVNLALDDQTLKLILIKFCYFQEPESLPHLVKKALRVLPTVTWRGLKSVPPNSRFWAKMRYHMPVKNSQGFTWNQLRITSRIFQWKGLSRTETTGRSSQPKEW
Test: cell-based or functional assay
Respond numerically; units are pM and should not be typed.

The binder listed as G3T/M60K-monospecific KiH (Fc fusion) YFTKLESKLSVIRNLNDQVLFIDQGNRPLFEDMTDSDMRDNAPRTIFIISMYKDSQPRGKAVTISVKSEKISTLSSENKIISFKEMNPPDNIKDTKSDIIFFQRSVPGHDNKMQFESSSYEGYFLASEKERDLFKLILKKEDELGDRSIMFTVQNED has a reported HEK-blue EC50 (pM) - IL-18BP of 0.27

Entry under test: G3T/E6K/K53A-monospecific KiH (Fc fusion) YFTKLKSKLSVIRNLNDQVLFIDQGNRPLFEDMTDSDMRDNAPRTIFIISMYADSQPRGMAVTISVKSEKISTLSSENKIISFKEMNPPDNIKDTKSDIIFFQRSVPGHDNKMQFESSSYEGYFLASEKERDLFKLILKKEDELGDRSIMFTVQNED . Its HEK-blue EC50 (pM) - IL-18BP was 0.04

// sample G3V/M60K-monospecific KiH (Fc fusion) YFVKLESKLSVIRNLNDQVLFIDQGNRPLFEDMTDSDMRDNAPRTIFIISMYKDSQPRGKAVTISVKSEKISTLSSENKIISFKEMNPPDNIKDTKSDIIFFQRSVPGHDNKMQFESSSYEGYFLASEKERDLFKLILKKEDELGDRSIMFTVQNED , its HEK-blue EC50 (pM) - IL-18BP was 0.06

Per the records, this binder ( Comparator 1-monospecific KiH (Fc fusion) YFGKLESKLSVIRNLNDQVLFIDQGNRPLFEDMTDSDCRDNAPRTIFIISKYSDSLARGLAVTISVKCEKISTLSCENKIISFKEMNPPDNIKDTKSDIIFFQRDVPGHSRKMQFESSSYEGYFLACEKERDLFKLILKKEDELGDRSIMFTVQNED ) has HEK-blue EC50 (pM) - IL-18BP equal to 0.03
